Hello, the source for this data is the kinase profiling compilation of Christmann-Franck et al. (2016), in case you need it.

Please go through the items and note down their kinase still bound, per cent of control.
target: NTRK3 (human); experiment: KINOMEscan competition binding; settings: compound 10.0 µM
Just the number in %, nothing appended.

Observed kinase still bound, per cent of control on NTRK3 (human) for N#CCNC(=O)c1ccc(-c2ccnc(Nc3ccc(N4CCOCC4)cc3)n2)cc1 , please.
63

Item COc1cc(C(=O)N2CCC(N3CCN(C)CC3)CC2)ccc1Nc1ncc2c(n1)N(C)c1ccccc1C(=O)N2C with NTRK3 (human) - kinase still bound, per cent of control?
100

Hello, I am looking for reported kinase still bound, per cent of control with NTRK3 (human) for COCC(=O)NC/C=C/c1ccc2ncnc(Nc3ccc(Oc4ccc(C)nc4)c(C)c3)c2c1 . Could you help?
93

# get_value(readout= kinase still bound, per cent of control, system= NTRK3 (human)) for Cc1n[nH]c2ccc(-c3cncc(OC[C@@H](N)Cc4c[nH]c5ccccc45)c3)cc12
100

Find kinase still bound, per cent of control (NTRK3 (human)) for the entry CN(C)C/C=C/C(=O)Nc1ccc(C(=O)Nc2cccc(Nc3nccc(-c4cccnc4)n3)c2)cc1
65

What kinase still bound, per cent of control appears in the records for this compound with NTRK3 (human)? COc1cc(N2CCN(C)CC2)ccc1Nc1ncc2c(n1)N(C)c1ccccc1C(=O)N2C
100

Recorded kinase still bound, per cent of control for O=C1NC(=O)/C(=C/c2ccc3nccc(-c4ccncc4)c3c2)S1 with NTRK3 (human), please?
68

Query for NTRK3 (human): what kinase still bound, per cent of control does the record show for O=C(Nc1cccc(Nc2ncc(Br)c(NCCc3cnc[nH]3)n2)c1)N1CCCC1 ?
2.6

Tell me reported kinase still bound, per cent of control for CS(=O)(=O)N1CCN(Cc2cc3nc(-c4cccc5[nH]ncc45)nc(N4CCOCC4)c3s2)CC1 , tested with NTRK3 (human).
100

Lab note: need kinase still bound, per cent of control for CCN(CC)CCCCNc1ncc2c(n1)N(C)C(=O)N(c1c(Cl)c(OC)cc(OC)c1Cl)C2 on NTRK3 (human), anyone have it?
100

Please state recorded kinase still bound, per cent of control (tested on NTRK3 (human)) of CCN(CC)CCCCNc1ncc2cc(-c3cc(OC)cc(OC)c3)c(NC(=O)NC(C)(C)C)nc2n1
100

Checklist item: kinase still bound, per cent of control tested on NTRK3 (human), entry CNC(=O)c1ccc(Nc2cc(Nc3ccccc3S(=O)(=O)C(C)C)c3cc[nH]c3n2)nc1 , value?
0.4

Give NTRK3 (human) kinase still bound, per cent of control for COc1cc2ncnc(-n3nc(-c4ccccn4)nc3N)c2cc1OC
100

// lookup kinase still bound, per cent of control | system=NTRK3 (human) | key= NC(=O)Nc1cc(-c2cccc(F)c2)sc1C(=O)N[C@@H]1CCCNC1
0.2

Hi! What's the reported kinase still bound, per cent of control for C=CC(=O)Nc1cc(-n2c(=O)ccc3cnc4ccc(-c5cn[nH]c5)cc4c32)ccc1C on NTRK3 (human)?
93

Request - read-out kinase still bound, per cent of control | tested on NTRK3 (human) | compound C=CC(=O)Nc1ccc(CN(C(=O)Nc2c(Cl)c(OC)cc(OC)c2Cl)c2cc(Nc3ccc(N4CCN(C)CC4)cc3)ncn2)cc1
100

Please state recorded kinase still bound, per cent of control (tested on NTRK3 (human)) of COc1cc2ncn(-c3cc(OCc4ccccc4C(F)(F)F)c(C(N)=O)s3)c2cc1OC
93

Param readout = kinase still bound, per cent of control; param system = NTRK3 (human); param query = O=c1cc(N2CCOCC2)oc2c(-c3cccc4c3sc3ccccc34)cccc12 ; response: value
74

Give NTRK3 (human) kinase still bound, per cent of control for COc1ccc(N(C(=O)Oc2c(C)cccc2C)c2ccnc(Nc3ccc(N4CCN(C)CC4)cc3)n2)c(OC)c1
100

Lookup: kinase still bound, per cent of control / NTRK3 (human) / CCN1CCN(C(=O)Cc2ccc(Nc3ncc(F)c(Nc4ccc(C(=O)Nc5ccccc5Cl)cc4)n3)cc2)CC1
78

###

target: NEK5 (human) (UniProt Q6P3R8); experiment: KINOMEscan competition binding; details: compound 10.0 µM
Sequence (Q6P3R8 whole entry, looked up): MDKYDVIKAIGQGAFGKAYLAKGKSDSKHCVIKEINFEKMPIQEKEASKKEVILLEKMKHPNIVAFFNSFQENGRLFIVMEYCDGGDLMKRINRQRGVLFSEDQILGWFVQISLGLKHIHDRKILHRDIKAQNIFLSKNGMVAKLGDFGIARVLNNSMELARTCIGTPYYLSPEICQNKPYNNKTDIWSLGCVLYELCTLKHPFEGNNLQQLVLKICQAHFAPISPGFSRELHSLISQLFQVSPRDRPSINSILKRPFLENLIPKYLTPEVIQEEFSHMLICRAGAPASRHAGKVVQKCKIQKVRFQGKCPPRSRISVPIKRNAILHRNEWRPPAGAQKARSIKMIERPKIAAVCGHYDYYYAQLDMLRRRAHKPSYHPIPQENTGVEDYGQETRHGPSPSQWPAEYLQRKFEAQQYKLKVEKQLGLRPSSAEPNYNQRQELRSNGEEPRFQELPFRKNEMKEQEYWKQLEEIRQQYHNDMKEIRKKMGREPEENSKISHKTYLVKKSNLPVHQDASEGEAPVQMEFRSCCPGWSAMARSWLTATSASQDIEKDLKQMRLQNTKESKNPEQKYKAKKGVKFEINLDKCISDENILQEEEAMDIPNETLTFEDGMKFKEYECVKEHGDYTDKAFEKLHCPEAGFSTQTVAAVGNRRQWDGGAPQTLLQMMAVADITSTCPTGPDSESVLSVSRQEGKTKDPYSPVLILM
value type: kinase still bound, per cent of control (%)
Reply with just the number (in %).

What value of measured kinase still bound, per cent of control is listed for CCN(CC)CCCCNc1ncc2c(n1)N(C)C(=O)N(c1c(Cl)c(OC)cc(OC)c1Cl)C2 ?
100

Please report the recorded kinase still bound, per cent of control for C=CC(=O)Nc1cc(-n2c(=O)ccc3cnc4ccc(-c5cn[nH]c5)cc4c32)ccc1C .
100

Request the reported kinase still bound, per cent of control associated with CCN1CCN(C(=O)Cc2ccc(Nc3ncc(F)c(Nc4ccc(C(=O)Nc5ccccc5Cl)cc4)n3)cc2)CC1
7.9

// kinase still bound, per cent of control lookup, key: COc1ccc(N(C(=O)Oc2c(C)cccc2C)c2ccnc(Nc3ccc(N4CCN(C)CC4)cc3)n2)c(OC)c1
85

###

target: MARK4 (human); test: KINOMEscan competition binding; conditions: compound 10.0 µM
value type: kinase still bound, per cent of control (%)
# value in %; strip the unit string

Requested field: kinase still bound, per cent of control. Item: CN(C)C/C=C/C(=O)Nc1ccc(C(=O)Nc2cccc(Nc3nccc(-c4cccnc4)n3)c2)cc1
26

Would you mind telling me what kinase still bound, per cent of control value was observed for COc1cc(N2CCN(C)CC2)ccc1Nc1ncc2c(n1)N(C)c1ccccc1C(=O)N2C ?
100

Given the entry CNC(=O)c1cc(Oc2ccc(NC(=O)Nc3ccc(Cl)c(C(F)(F)F)c3)cc2)ccn1 , report its measured kinase still bound, per cent of control.
100

I am curious: what kinase still bound, per cent of control value has been reported for CS(=O)(=O)N1CCN(Cc2cc3nc(-c4cccc5[nH]ncc45)nc(N4CCOCC4)c3s2)CC1 ?
100

Would you kindly share the measured kinase still bound, per cent of control for N#CCNC(=O)c1ccc(-c2ccnc(Nc3ccc(N4CCOCC4)cc3)n2)cc1 ?
42

###

test system: KIT (human), P10721 [V559D/V654A]; test: KINOMEscan competition binding; conditions: compound 10.0 µM
Sequence (P10721 whole entry V559D/V654A, looked up): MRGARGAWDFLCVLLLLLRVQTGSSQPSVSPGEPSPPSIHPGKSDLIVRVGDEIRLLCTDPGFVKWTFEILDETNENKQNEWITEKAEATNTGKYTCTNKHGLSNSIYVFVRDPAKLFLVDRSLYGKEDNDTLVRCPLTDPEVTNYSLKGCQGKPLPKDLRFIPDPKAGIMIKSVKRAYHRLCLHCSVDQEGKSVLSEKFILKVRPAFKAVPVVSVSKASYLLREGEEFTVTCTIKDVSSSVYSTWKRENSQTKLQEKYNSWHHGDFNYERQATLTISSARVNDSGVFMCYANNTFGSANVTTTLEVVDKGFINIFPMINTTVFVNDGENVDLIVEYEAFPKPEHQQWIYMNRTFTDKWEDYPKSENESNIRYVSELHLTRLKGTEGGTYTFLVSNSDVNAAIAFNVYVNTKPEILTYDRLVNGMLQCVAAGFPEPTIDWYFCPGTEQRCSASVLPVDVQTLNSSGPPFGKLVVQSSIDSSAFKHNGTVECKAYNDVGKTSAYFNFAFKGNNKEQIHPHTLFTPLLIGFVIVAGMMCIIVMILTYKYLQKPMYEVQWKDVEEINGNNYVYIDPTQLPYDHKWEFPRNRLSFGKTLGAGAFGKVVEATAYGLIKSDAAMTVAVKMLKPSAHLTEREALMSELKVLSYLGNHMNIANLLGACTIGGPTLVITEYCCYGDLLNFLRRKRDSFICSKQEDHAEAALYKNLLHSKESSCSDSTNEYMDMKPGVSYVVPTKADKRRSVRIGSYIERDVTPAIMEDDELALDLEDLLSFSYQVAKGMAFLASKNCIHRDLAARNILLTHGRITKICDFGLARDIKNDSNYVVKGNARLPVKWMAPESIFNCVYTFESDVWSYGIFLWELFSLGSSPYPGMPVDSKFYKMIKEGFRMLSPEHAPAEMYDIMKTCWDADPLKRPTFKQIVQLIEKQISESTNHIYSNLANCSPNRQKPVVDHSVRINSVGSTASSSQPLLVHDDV
Task for the reader: assign each of the following molecules its reported kinase still bound, per cent of control.
Report as a plain number; the unit % is understood.

// kinase still bound, per cent of control lookup, key: C=CC(=O)Nc1cc(NC(=O)c2ccc(C)c(NC(=O)c3ccno3)c2)cc(C(F)(F)F)c1
23

Any idea what kinase still bound, per cent of control was measured for CCN(CC)CCCCNc1ncc2c(n1)N(C)C(=O)N(c1c(Cl)c(OC)cc(OC)c1Cl)C2 ?
100

What value of measured kinase still bound, per cent of control is listed for O=C(Nc1cccc(Nc2ncc(Br)c(NCCc3cnc[nH]3)n2)c1)N1CCCC1 ?
15

Request the reported kinase still bound, per cent of control associated with CNC(=O)Nc1ccc(-c2nc(N3CC4CCC(C3)O4)c3cnn(C4CCC5(CC4)OCCO5)c3n2)cc1
100

What value of kinase still bound, per cent of control has been reported for the following molecule? CC[C@@H]1C(=O)N(C)c2cnc(Nc3ccc(C(=O)NC4CCN(C)CC4)cc3OC)nc2N1C1CCCC1
100

Fill blank: measured kinase still bound, per cent of control of the molecule OCCCNc1cc(-c2ccnc(Nc3cccc(Cl)c3)n2)ccn1 is ____.
100

Which kinase still bound, per cent of control value belongs to COc1cc(N2CCN(C)CC2)ccc1Nc1ncc2c(n1)N(C)c1ccccc1C(=O)N2C ?
100

Could you share which kinase still bound, per cent of control value was measured for C=CC(=O)Nc1cccc(Oc2nc(Nc3ccc(N4CCN(C)CC4)cc3OC)ncc2Cl)c1 ?
100

What measured kinase still bound, per cent of control goes with O=C(NC1CC1)c1cccc(-c2ccc3c(NC(=O)C4CC4)n[nH]c3c2)c1 ?
90

Name the recorded kinase still bound, per cent of control for C[C@@H](Oc1cc(-n2cnc3ccc(CN4CCN(C)CC4)cc32)sc1C(N)=O)c1ccccc1C(F)(F)F .
100

Recorded kinase still bound, per cent of control for O=C1NC(=O)/C(=C/c2ccc3nccc(-c4ccncc4)c3c2)S1 , please?
100

Value lookup for kinase still bound, per cent of control; key = C=CC(=O)Nc1cc(-n2c(=O)ccc3cnc4ccc(-c5cn[nH]c5)cc4c32)ccc1C
100

kinase still bound, per cent of control for CCN1CCN(Cc2ccc(NC(=O)c3ccc(C)c(/C=C/c4cnc5[nH]ccc5c4OC)c3)cc2C(F)(F)F)CC1 ?
2.6

kinase still bound, per cent of control for COc1cc2ncn(-c3cc(OCc4ccccc4C(F)(F)F)c(C(N)=O)s3)c2cc1OC ?
100

Query: kinase still bound, per cent of control; subject: N#Cc1cc(-c2ccnc(Nc3ccc(-n4cnc(-c5cccnc5)n4)cc3)n2)cc(N2CCOCC2)c1
42

Which measured kinase still bound, per cent of control value corresponds to COc1cc(C)c(Sc2cnc(NC(=O)c3ccc(CNC(C)C(C)C)cc3)s2)cc1C(=O)N1CCN(C(C)=O)CC1 (configuration not stated) ?
100

// query kinase still bound, per cent of control value for entry CCN1CCN(Cc2ccc(Nc3ncc4c(n3)N(C)c3ccccc3C(=O)N4C)cc2C(F)(F)F)CC1
100

Return reported kinase still bound, per cent of control; argument: O=C(O)c1ccc(Nc2ncc3c(n2)-c2ccc(Cl)cc2C(c2c(F)cccc2F)=NC3)cc1
60

Reported kinase still bound, per cent of control, molecule COc1cc2ncnc(-n3nc(-c4ccccn4)nc3N)c2cc1OC : ____
82

Requested field: kinase still bound, per cent of control. Item: COc1cc2ncnc(Nc3cccc(Cl)c3)c2cc1OC
82

Entry Cc1ccc2nc(NCCN)c3ncc(C)n3c2c1 : reported kinase still bound, per cent of control = ?
100

Bench note: what kinase still bound, per cent of control did CNC(=O)c1ccc(Nc2cc(Nc3ccccc3S(=O)(=O)C(C)C)c3cc[nH]c3n2)nc1 show?
100

So what's the measured kinase still bound, per cent of control for this one? O=C(NOC[C@H](O)CO)c1ccc(F)c(F)c1Nc1ccc(I)cc1F
100

Which kinase still bound, per cent of control is listed for Cc1n[nH]c2ccc(-c3cncc(OC[C@@H](N)Cc4c[nH]c5ccccc45)c3)cc12 ?
100

Please report the recorded kinase still bound, per cent of control for COc1cc2c(Nc3ccc(NC(=O)c4ccccc4)cc3)ncnc2cc1OCCCN1CCOCC1 .
5.8

So what's the measured kinase still bound, per cent of control for this one? COc1cc(C(=O)NC2CCN(C)CC2)ccc1Nc1ncc2c(n1)N(C1CCCC1)C(C)CC(=O)N2C (configuration not stated)
100

Form field: reported kinase still bound, per cent of control of Cn1c(=O)n(-c2ccc(C(C)(C)C#N)cc2)c2c3cc(-c4cnc5ccccc5c4)ccc3ncc21
100

Please report the recorded kinase still bound, per cent of control for N#CCNC(=O)c1ccc(-c2ccnc(Nc3ccc(N4CCOCC4)cc3)n2)cc1 .
100

Any idea what its kinase still bound, per cent of control is? The molecule is Nc1ccc(-c2ccc3ncc4ccc(=O)n(-c5cccc(C(F)(F)F)c5)c4c3c2)cn1
100

Which kinase still bound, per cent of control is reported for this molecule? CC1=C(C(=O)Nc2cc3cn[nH]c3cc2F)C(c2ccc(C(F)(F)F)cc2)CC(=O)N1 (configuration not stated)
92

Given the entry COc1cc(C(=O)NC2CCN(C)CC2)ccc1Nc1ncc2c(n1)N(C1CCCC1)CCC(=O)N2C(C)C , report its measured kinase still bound, per cent of control.
100

Quick one: kinase still bound, per cent of control of CCCS(=O)(=O)Nc1ccc(F)c(C(=O)c2c[nH]c3ncc(-c4ccc(Cl)cc4)cc23)c1F ?
26

Record request: kinase still bound, per cent of control value, item O=c1[nH]c2ccccc2n1C1CCN(Cc2ccc(-c3nc4cc5[nH]cnc5cc4nc3-c3ccccc3)cc2)CC1
92

State the recorded kinase still bound, per cent of control for this entry: Cc1ccc(NC(=O)c2cccc(C(C)(C)C#N)c2)cc1Nc1ccc2ncn(C)c(=O)c2c1
1.2

State the recorded kinase still bound, per cent of control for this entry: CCOc1cc(N2CCC(O)CC2)ccc1Nc1ncc2c(n1)N(C)c1ccccc1C(=O)N2C
100

Reported kinase still bound, per cent of control for COCC(=O)NC/C=C/c1ccc2ncnc(Nc3ccc(Oc4ccc(C)nc4)c(C)c3)c2c1 : what is it?
88

So what's the measured kinase still bound, per cent of control for this one? O=c1cc(N2CCOCC2)oc2c(-c3cccc4c3sc3ccccc34)cccc12
100
